system: G361 human melanoma cells; assay: MTT cell viability assay, G361 melanoma; assay type: cell-based; conditions: Homo sapiens, G-361; G361, MTT test, 24 h treatment
quantityKind: IC50 (µM)
One number for each entry, in µM.

Example entries and their recorded answers appear below.
S=C(NN=Cc1ccc(Br)cc1)Nc1cccc(Cl)c1 : 396
S=C(NN=Cc1ccc(Cl)c(Cl)c1)Nc1ccccc1Cl : 177
CN(C)/N=N/c1[nH]cnc1C(N)=O [DTIC, dacarbazine, reference compound] : 426

Dear colleague, could you send me IC50 for each of the items below? Thanks.
1. COc1ccc(C=NNC(=S)Nc2ccccc2)cc1OC
2. COc1ccc(C=NNC(=S)Nc2ccccc2Cl)cc1OC

1: 488; 2: 370
